System Under Test: Plexin B1
Assay Info: KD (nM)
Readout Name: pKd
pKd here: minus log base 10 of the concentration, concentration in moles per litre.

Look up pKd: wRPRVARWTGQITYC [P6]
8.48
